# tested system: T1, Clostridium difficile toxin A (TcdA) (Clostridium difficile, UniProt P16154 1-2710)
# T1 construct: mature; also called full-length TcdA
# T1 sequence (P16154 whole entry): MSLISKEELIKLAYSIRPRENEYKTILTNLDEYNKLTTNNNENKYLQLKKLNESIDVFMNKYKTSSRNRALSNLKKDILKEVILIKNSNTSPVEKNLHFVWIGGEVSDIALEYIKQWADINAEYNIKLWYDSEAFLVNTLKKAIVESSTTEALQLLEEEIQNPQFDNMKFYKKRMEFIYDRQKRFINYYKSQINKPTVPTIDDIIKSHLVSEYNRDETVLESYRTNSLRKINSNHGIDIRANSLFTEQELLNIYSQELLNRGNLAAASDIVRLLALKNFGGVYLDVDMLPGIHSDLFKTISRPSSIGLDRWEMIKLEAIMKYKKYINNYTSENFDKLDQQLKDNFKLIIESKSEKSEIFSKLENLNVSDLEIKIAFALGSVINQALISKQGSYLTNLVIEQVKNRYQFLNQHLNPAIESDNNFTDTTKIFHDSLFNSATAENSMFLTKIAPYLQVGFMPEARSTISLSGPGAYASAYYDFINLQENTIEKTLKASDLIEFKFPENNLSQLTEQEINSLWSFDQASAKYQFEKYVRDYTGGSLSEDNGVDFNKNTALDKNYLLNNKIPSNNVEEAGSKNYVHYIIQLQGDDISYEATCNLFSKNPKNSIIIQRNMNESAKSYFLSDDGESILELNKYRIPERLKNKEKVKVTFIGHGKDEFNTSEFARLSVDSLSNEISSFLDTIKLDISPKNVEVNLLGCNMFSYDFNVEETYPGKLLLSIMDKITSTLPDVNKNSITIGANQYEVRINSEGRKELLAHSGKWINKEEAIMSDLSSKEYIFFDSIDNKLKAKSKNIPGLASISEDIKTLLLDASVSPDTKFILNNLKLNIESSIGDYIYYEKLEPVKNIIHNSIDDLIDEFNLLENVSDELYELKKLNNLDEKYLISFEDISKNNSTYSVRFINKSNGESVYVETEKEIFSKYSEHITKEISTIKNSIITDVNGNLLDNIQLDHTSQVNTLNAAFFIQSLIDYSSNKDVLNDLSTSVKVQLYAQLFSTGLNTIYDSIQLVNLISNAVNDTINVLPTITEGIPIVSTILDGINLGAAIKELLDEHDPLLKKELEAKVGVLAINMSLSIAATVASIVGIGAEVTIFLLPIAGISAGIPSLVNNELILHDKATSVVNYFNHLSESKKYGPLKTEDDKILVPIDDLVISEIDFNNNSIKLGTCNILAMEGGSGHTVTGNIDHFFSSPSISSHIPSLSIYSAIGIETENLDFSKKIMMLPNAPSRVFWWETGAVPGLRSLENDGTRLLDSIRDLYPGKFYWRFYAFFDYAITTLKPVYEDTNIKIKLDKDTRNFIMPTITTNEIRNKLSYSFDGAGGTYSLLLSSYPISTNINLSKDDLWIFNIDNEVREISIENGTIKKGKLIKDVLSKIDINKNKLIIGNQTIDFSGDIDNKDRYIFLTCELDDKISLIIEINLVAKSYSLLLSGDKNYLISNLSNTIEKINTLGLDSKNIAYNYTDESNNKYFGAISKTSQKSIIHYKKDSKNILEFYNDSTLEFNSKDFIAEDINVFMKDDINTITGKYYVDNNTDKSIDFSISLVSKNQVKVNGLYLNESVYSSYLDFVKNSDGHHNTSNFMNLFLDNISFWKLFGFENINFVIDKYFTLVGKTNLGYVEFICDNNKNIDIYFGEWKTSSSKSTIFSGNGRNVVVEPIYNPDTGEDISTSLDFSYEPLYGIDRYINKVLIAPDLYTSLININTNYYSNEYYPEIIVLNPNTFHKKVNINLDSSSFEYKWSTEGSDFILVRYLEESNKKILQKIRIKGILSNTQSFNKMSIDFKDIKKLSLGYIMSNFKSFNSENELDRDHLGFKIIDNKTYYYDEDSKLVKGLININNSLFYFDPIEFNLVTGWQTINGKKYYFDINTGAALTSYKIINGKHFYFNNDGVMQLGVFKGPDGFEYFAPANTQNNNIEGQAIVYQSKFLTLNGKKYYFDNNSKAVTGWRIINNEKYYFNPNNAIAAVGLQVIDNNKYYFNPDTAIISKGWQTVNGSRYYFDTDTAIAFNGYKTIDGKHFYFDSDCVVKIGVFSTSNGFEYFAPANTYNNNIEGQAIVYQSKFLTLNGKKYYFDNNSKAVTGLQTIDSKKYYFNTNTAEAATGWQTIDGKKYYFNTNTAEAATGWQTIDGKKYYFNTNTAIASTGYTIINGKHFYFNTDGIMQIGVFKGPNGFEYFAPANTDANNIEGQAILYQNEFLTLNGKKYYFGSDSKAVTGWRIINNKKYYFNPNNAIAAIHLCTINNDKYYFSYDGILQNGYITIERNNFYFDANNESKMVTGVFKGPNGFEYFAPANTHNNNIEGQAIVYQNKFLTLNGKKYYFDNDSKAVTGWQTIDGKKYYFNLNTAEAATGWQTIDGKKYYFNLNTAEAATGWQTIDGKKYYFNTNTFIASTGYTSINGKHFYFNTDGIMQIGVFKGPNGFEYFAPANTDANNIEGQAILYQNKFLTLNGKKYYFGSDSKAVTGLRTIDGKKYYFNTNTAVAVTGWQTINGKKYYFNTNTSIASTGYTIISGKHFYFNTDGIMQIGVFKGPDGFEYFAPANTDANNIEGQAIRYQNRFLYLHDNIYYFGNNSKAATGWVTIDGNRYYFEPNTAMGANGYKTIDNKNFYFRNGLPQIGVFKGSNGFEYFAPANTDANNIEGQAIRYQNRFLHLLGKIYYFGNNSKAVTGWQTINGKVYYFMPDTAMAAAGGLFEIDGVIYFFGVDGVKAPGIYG
# protocol: SPR (Biacore 3000), VHH over immobilized TcdA, 1:1 fit
pKd: −log10 of the molar value.
# binarize pKd: threshold 8 inclusive, high side class 1, low side class 0

Solved entries (count: 2):
binder	label value
A26.8 VHH mutant R104W (VHH, not shown: small tags and cut ends) VHH: QVKLEESGGGLVQAGGSLRLSCAASERTFSRYPVAWFRQAPGAEREFVAVISSTGTSTYYADSVKGRFTISRDNAKVTVYLQMNNLKREDTAVYFCAVNSQRTWLQDPNEYDYWGQGTQVTVSS	class 0
A26.8-T56R, T103R (VHH, not shown: small tags and cut ends, also called lead double mutant; best double mutant) VHH: QVKLEESGGGLVQAGGSLRLSCAASERTFSRYPVAWFRQAPGAEREFVAVISSTGRSTYYADSVKGRFTISRDNAKVTVYLQMNNLKREDTAVYFCAVNSQRRRLQDPNEYDYWGQGTQVTVSS	class 1

Continue with the binder presented below.
Entry A26.8-T56R, Q101K, T103M (VHH, not shown: small tags and cut ends) VHH: QVKLEESGGGLVQAGGSLRLSCAASERTFSRYPVAWFRQAPGAEREFVAVISSTGRSTYYADSVKGRFTISRDNAKVTVYLQMNNLKREDTAVYFCAVNSKRMRLQDPNEYDYWGQGTQVTVSS : is its pKd no less than 8?
class 1
